tgt: GPR43 (Homo sapiens, UniProt O15552)
Construct: expressed in transfected cells
Sequence (O15552 1-330): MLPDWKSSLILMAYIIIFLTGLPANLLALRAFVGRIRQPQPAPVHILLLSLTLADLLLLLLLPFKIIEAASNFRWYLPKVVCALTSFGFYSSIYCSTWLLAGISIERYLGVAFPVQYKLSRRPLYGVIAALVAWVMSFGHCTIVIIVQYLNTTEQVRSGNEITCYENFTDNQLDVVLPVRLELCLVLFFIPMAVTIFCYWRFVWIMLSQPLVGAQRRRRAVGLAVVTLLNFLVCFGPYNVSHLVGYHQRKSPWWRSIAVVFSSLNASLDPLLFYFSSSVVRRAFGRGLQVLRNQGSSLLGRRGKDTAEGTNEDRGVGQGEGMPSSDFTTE
experimentalProtocol: Calcium mobilization assay with probenecid
Type: cell-based
runParameters: GPR43 stably expressing cells; triggered with sodium acetate at EC80; 2.5 mM probenecid; read-out: GPR43 assay with probenicid IC50
Could you please report measured IC50 for the items listed next?

Return reported IC50; argument: CC1(C(=O)N(CCCC(=O)N2CCOCC2)Cc2ccc(Cl)cc2)CCN1C(=O)Cc1csc2ccccc12 (stereo not shown)
0.01 to 100 nM

Let us now turn to O=C(O)CCCN(Cc1cccc(Cl)c1)C(=O)C1(Cc2ccccc2)CCN1C(=O)c1csc2ccccc12 (stereo not shown)
101 to 500 nM

What about this compound? Cc1cc(C)cc(OC(=O)N2CCC2(C)C(=O)N(CCCC(=O)O)Cc2ccc(Cl)cc2)c1 (stereo not shown)
0.01 to 100 nM

What about this compound? CC1(C(=O)N(CCCC#N)Cc2ccc(Cl)cc2)CCN1C(=O)Cc1csc2ccccc12 (stereo not shown)
101 to 500 nM

How about CN(Cc1ccc(Cl)cc1)C(=O)C1(C)CCN1C(=O)Cc1ccc(-c2cccc(C#N)c2)cc1 (stereo not shown) ?
> 1000 nM

Same for CCOC(=O)CCCN(Cc1cccc(Cl)c1)C(=O)C1(C)CCN1C(=O)c1csc2ccccc12 (stereo not shown)
> 1000 nM

Likewise for CC1(C(=O)N(CCCC(=O)NS(C)(=O)=O)Cc2ccc(Cl)cc2)CCN1C(=O)c1csc2ccccc12 (stereo not shown) ?
101 to 500 nM
